ASSAYED TARGET: Human immunodeficiency virus type 1 reverse transcriptase (Human immunodeficiency virus 1)
Let's look at some molecules and their measured IC50.
Answer format: numeric, nM implied, no suffix.

Return the recorded IC50 value; entry: `Cc1cc(/C=C/C#N)cc(C)c1Oc1ccnc(Nc2ccc3c(c2)OCO3)n1`
26

Return the recorded IC50 value; entry: `Cc1cc(/C=C/C#N)cc(C)c1Oc1ccnc(Nc2ccc3c(cnn3C)c2)n1`
45

Return the recorded IC50 value; entry: `Cc1cc(/C=C/C#N)cc(C)c1Oc1ccnc(Nc2ccc3c(c2)C(=O)NC3)n1`
58

Return the recorded IC50 value; entry: `Cc1cc(/C=C/C#N)cc(C)c1Oc1ccnc(Nc2ccc3c(c2)CN(S(C)(=O)=O)CC3)n1`
78

Return the recorded IC50 value; entry: `Cc1cc(/C=C/C#N)cc(C)c1Oc1ccnc(Nc2ccc3oncc3c2)n1`
65

----------
System: Human immunodeficiency virus 1
ASSAY REMARKS: microbe, parasite or virus in culture
TEST CONDITIONS: Human immunodeficiency virus 1, IIIB, MT4, 120 h
Description: Antiviral activity against wild type HIV-1 IIIB infected in human MT4 cells assessed as protection against virus-induced cytopathic effect incubated for 5 days by MTT assay
EXPERIMENTAL ENDPOINT: pEC50
A value of pEC50 is the negative decimal logarithm of a concentration given in moles per litre.

{"columns": ["COMPOUND SMILES", "pEC50"],
 "data": [
  ["Cc1cc(/C=C/C#N)cc(C)c1Oc1ccnc(Nc2ccc3nc(C#N)sc3c2)n1", 7.21]
]}

Return the recorded pEC50 value; entry: `Cc1cc(/C=C/C#N)cc(C)c1Oc1ccnc(Nc2ccc3c(c2)CCN(CCS(C)(=O)=O)C3)n1`
7.72

Return the recorded pEC50 value; entry: `Cc1cc(/C=C/C#N)cc(C)c1Oc1ccnc(Nc2ccc3c(c2)OC(F)(F)O3)n1`
7.70

Return the recorded pEC50 value; entry: `Cc1cc(/C=C/C#N)cc(C)c1Oc1ccnc(Nc2ccc3c(C(F)(F)F)cc(=O)oc3c2)n1`
7.12

Return the recorded pEC50 value; entry: `Cc1cc(/C=C/C#N)cc(C)c1Oc1ccnc(Nc2ccc3c(c2)C(=O)NC3)n1`
8.22

----------
ASSAY REMARKS: Cytotoxicity against human MT4 cells assessed as reduction in cell viability measured after 5 days by MTT assay
Assay type: toxicity, cell-based
TEST CONDITIONS: time 5 day
Let's look at some compounds and their measured CC50 at 120 h.

Solved entries:
{"columns": ["COMPOUND SMILES", "CC50 at 120 h"],
 "data": [
  ["Cc1cc(C#N)cc(C)c1Oc1nc(Nc2ccc(C#N)cc2)nc(N)c1Br", "> 4.59 µM"],
  ["Cc1cn([C@H]2C[C@H](N=[N+]=[N-])[C@@H](CO)O2)c(=O)[nH]c1=O", "> 7.48 µM"]
]}

Return the recorded CC50 at 120 h value; entry: `Cc1ccnc2c1NC(=O)c1cccnc1N2C1CC1`
> 9.51 µM

----------
Let's look at some compounds and their measured selectivity ratio.
ASSAY REMARKS: in vitro
TEST CONDITIONS: human, MT4 cells
Description: Selectivity index, ratio of CC50 for human MT4 cells to EC50 for wild type HIV-1 IIIB infected in human MT4 cells

Solved entries:
{"columns": ["COMPOUND SMILES", "TEST RESULT"],
 "data": [
  ["Cc1cc(/C=C/C#N)cc(C)c1Oc1ccnc(Nc2ccc3c(C)cc(=O)oc3c2)n1", "> 2590"],
  ["Cc1cc(/C=C/C#N)cc(C)c1Oc1ccnc(Nc2ccc3c(c2)NC(=O)C3)n1", "> 27600"]
]}

Below: the item to evaluate.
Return the recorded selectivity ratio value; entry: `Cc1cc(/C=C/C#N)cc(C)c1Oc1ccnc(Nc2ccc3c(c2)C(=O)N(C)C3=O)n1`
> 52500

----------
Tested on: Human immunodeficiency virus 1
ASSAY REMARKS: Antiviral activity against NNRTI-resistant HIV-1 harboring RT K103N mutant infected in human MT4 cells assessed as protection against virus-induced cytopathic effect incubated for 5 days by MTT assay
Format: functional, organism-based
TEST CONDITIONS: Human immunodeficiency virus 1, MT4, 120 h
Let's look at some compounds and their measured EC50.

Solved entries:
{"columns": ["COMPOUND SMILES", "EC50"],
 "data": [
  ["Cc1cn([C@H]2C[C@H](N=[N+]=[N-])[C@@H](CO)O2)c(=O)[nH]c1=O", "36 nM"],
  ["Cc1cc(/C=C/C#N)cc(C)c1Oc1ccnc(Nc2ccc3cnsc3c2)n1", "4 nM"],
  ["Cc1cc(/C=C/C#N)cc(C)c1Oc1ccnc(Nc2ccc3c(cnn3C)c2)n1", "18 nM"]
]}

Write EC50 of `Cc1cc(/C=C/C#N)cc(C)c1Oc1ccnc(Nc2ccc3c(c2)C(=O)NCC3)n1` ; system used: Human immunodeficiency virus 1
11 nM

Write EC50 of `Cc1cc(/C=C/C#N)cc(C)c1Oc1ccnc(Nc2ccc(N3CCN(S(C)(=O)=O)CC3)c(C#N)c2)n1` ; system used: Human immunodeficiency virus 1
2 nM

----------
Let's look at some compounds and their measured log10(IC50).
ASSAYED TARGET: Human immunodeficiency virus type 1 reverse transcriptase (Human immunodeficiency virus 1, UniProt Q72547)
ASSAY REMARKS: Inhibition of wild type HIV-1 Reverse transcriptase incubated for 1 hrs by ELISA analysis
Log10 applied to IC50; unit prior to transform: nM.

Solved entries:
{"columns": ["COMPOUND SMILES", "log10(IC50)"],
 "data": [
  ["Cn1c(Cn2ccc(C(F)(F)F)c(Oc3cc(Cl)cc(C#N)c3)c2=O)n[nH]c1=O", 1.48],
  ["Cc1cc(/C=C/C#N)cc(C)c1Oc1ccnc(Nc2ccc3c(C)cc(=O)oc3c2)n1", 1.89],
  ["Cc1cc(/C=C/C#N)cc(C)c1Oc1ccnc(Nc2ccc3ncsc3c2)n1", 1.85],
  ["Cc1cc(/C=C/C#N)cc(C)c1Oc1ccnc(Nc2ccc3c(c2)C(=O)N(C)C3=O)n1", 1.73],
  ["Cc1cc(/C=C/C#N)cc(C)c1Oc1ccnc(Nc2ccc3cnsc3c2)n1", 1.28]
]}

Return the recorded log10(IC50) value; entry: `Cc1cc(/C=C/C#N)cc(C)c1Oc1ccnc(Nc2ccc3c(c2)CN(CC#N)CC3)n1`
2.40

Return the recorded log10(IC50) value; entry: `Cc1cc(/C=C/C#N)cc(C)c1Oc1ccnc(Nc2ccc3c(c2)CCN(S(N)(=O)=O)C3)n1`
1.74

Return the recorded log10(IC50) value; entry: `Cc1cc(/C=C/C#N)cc(C)c1Oc1ccnc(Nc2ccc3c(c2)C(=O)NCC3)n1`
1.66

Return the recorded log10(IC50) value; entry: `COP(=O)(OC)N1CCc2cc(Nc3nccc(Oc4c(C)cc(/C=C/C#N)cc4C)n3)ccc2C1`
2.23

Return the recorded log10(IC50) value; entry: `Cc1cc(/C=C/C#N)cc(C)c1Oc1ccnc(Nc2ccc3c(c2)CN(C(=O)CS(C)(=O)=O)CC3)n1`
2.36

Return the recorded log10(IC50) value; entry: `Cc1cc(/C=C/C#N)cc(C)c1Oc1ccnc(Nc2ccc3c(c2)COC3)n1`
1.46

Return the recorded log10(IC50) value; entry: `Cc1cc(/C=C/C#N)cc(C)c1Oc1ccnc(Nc2ccc3c(c2)NC(=O)C3)n1`
1.72

Return the recorded log10(IC50) value; entry: `Cc1cc(/C=C/C#N)cc(C)c1Oc1ccnc(Nc2ccc3c(c2)CCN(S(C)(=O)=O)C3)n1`
2.00

Return the recorded log10(IC50) value; entry: `Cc1cc(/C=C/C#N)cc(C)c1Oc1ccnc(Nc2ccc3c(c2)OC(F)(F)O3)n1`
1.95

Return the recorded log10(IC50) value; entry: `Cc1cc(/C=C/C#N)cc(C)c1Oc1ccnc(Nc2ccc3scnc3c2)n1`
1.63

Return the recorded log10(IC50) value; entry: `Cc1cc(/C=C/C#N)cc(C)c1Oc1ccnc(Nc2ccc3c(c2)CCN(C(=O)CS(C)(=O)=O)C3)n1`
2.08

----------
ASSAYED TARGET: Human immunodeficiency virus type 1 reverse transcriptase (Human immunodeficiency virus 1, UniProt Q72547)
hey, just use T if measured IC50 is less than 40 nM, otherwise F

Sample answers from the record:
{"columns": ["COMPOUND SMILES", "CATEGORY LABEL"],
 "data": [
  ["Cc1cc(/C=C/C#N)cc(C)c1Oc1ccnc(Nc2ccc3sccc3c2)n1", "F"],
  ["Cc1nc2cc(Nc3nccc(Oc4c(C)cc(/C=C/C#N)cc4C)n3)ccc2s1", "F"],
  ["Cc1cc(/C=C/C#N)cc(C)c1Oc1ccnc(Nc2ccc3nsnc3c2)n1", "T"],
  ["Cc1cc(/C=C/C#N)cc(C)c1Oc1ccnc(Nc2ccc3c(C(F)(F)F)cc(=O)oc3c2)n1", "F"]
]}

Is IC50 of `Cc1cc(/C=C/C#N)cc(C)c1Oc1ccnc(Nc2ccc3nccn3c2)n1` strictly below 40 nM?
T

Is IC50 of `Cc1cc(/C=C/C#N)cc(C)c1Oc1ccnc(Nc2ccc3nncn3c2)n1` strictly below 40 nM?
T

Is IC50 of `Cc1cc(/C=C/C#N)cc(C)c1Oc1ccnc(Nc2ccc3occc3c2)n1` strictly below 40 nM?
F
